Attribution: patent US20250092033A1

# target-under-test: wild type (WT) MET kinase (Homo sapiens, UniProt P08581)
# Construct: purchased Carna 08-151
# Sequence (P08581 25-1390): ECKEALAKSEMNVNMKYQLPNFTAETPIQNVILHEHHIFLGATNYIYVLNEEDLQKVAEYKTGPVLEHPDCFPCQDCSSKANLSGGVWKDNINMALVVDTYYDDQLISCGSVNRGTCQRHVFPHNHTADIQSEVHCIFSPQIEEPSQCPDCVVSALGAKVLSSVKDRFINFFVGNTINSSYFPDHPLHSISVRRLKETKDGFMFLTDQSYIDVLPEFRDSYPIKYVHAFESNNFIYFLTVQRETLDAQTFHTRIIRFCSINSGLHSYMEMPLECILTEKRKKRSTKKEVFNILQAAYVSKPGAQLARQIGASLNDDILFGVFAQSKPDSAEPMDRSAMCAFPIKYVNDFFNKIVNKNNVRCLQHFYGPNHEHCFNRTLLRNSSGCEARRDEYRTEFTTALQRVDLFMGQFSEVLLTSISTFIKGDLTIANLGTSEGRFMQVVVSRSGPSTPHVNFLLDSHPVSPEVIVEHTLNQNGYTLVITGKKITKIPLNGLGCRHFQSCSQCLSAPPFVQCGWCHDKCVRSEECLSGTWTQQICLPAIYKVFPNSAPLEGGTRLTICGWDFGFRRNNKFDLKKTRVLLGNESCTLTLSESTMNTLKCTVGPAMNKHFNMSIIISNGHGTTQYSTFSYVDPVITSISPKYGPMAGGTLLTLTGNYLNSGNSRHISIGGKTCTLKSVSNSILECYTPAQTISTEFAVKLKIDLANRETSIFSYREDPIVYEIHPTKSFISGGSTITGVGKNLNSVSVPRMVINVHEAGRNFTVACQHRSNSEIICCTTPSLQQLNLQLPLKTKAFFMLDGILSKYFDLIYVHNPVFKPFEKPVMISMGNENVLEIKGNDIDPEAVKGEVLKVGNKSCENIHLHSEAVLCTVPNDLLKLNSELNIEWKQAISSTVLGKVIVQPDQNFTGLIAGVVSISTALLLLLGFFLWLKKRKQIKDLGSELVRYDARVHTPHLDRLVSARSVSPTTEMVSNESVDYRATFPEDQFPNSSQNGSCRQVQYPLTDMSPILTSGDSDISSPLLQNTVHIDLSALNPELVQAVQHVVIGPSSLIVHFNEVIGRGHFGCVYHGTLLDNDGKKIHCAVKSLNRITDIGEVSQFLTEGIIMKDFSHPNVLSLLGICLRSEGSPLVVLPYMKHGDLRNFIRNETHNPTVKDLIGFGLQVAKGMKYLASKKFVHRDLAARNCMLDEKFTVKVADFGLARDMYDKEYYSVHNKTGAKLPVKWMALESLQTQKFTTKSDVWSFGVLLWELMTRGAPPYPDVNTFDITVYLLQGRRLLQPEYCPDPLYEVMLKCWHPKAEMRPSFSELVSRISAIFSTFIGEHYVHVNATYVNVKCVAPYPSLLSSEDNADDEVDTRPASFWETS
# protocol-details: Kinase inhibition experiment (HTRF KinEASE-TK kit), wild-type MET
# Format: biochemical
# test-conditions: 10 concentrations, 3-fold dilution

[
  {
    "compound": "C[C@H](CO)Nc1n[nH]c2nccc(Oc3ccc(NC(=O)c4ccc(OC(F)F)c(-c5ccc(F)cc5)[n+]4[O-])cc3Cl)c12 [Final product 139]",
    "unit-name": "nM",
    "IC50": 4.5
  },
  {
    "compound": "CC1(O)CCN(c2n[nH]c3nccc(Oc4ccc(NC(=O)c5cccc(-c6ccc(F)cc6)[n+]5[O-])cc4F)c23)CC1 [Final product 27]",
    "unit-name": "nM",
    "IC50": 4.5
  },
  {
    "compound": "CC[C@@H](CO)Nc1n[nH]c2nccc(Oc3ccc(NC(=O)c4cccc(-c5ccc(F)cc5)[n+]4[O-])cc3F)c12 [Final product 6]",
    "unit-name": "nM",
    "IC50": 8.5
  },
  {
    "compound": "Cc1ccc(C(=O)Nc2ccc(Oc3ccnc4[nH]nc(N[C@H](C)CO)c34)c(F)c2)[n+]([O-])c1-c1ccc(F)cc1 [Final product 67]",
    "unit-name": "nM",
    "IC50": 4
  },
  {
    "compound": "C[C@@H](Nc1n[nH]c2nccc(Oc3ccc(NC(=O)c4cccc(-c5ccc(F)cc5)[n+]4[O-])cc3F)c12)C(C)(C)O [Final product 16]",
    "unit-name": "nM",
    "IC50": 7.5
  },
  {
    "compound": "O=C(Nc1ccc(Oc2ccnc3[nH]nc(N4CCC[C@@H](CO)C4)c23)c(F)c1)c1cccc(-c2ccc(F)cc2)[n+]1[O-] [Final product 32]",
    "unit-name": "nM",
    "IC50": 4.4
  }
]
